tested on: Saccharomyces cerevisiae; test: protein stability index of tFT-peptide fusion (C-terminal peptide) (PSI (0-1 scale)); higher = more stable (slower turnover); conditions: genetic background: cdc34-1; temperature: 37 C
# protein stability index per record follows
Attribute measured: protein stability index

Sequence chain	Observed result
LLLRWWLYSCCP	0.411
GFSFFFIFWFFF	0.394
SGLVAFSVCCRG	0.409
SQIALIQYFHIL	0.408
WLFRCFLFVVGG	0.39

====

test system: Saccharomyces cerevisiae; test: protein stability index of tFT-peptide fusion (C-terminal peptide) (PSI (0-1 scale)); higher = more stable (slower turnover); details: genetic background: wild type; temperature: 30 C
Attribute measured: protein stability index

Sequence chain	Observed result
PLSPPLLPPTTL	0.706
SFVLFAGPVFFW	0.655
GGALFVCSSVGR	0.681
VLRDLGVSLSRA	0.785
NSGSNKSNNRKC	0.726
ATVDLDLLSTCL	0.7
VFWGGGAVGSVR	0.69
IQANLPLLTNQE	0.663
ASPFGFLFCCGG	0.654
APPARSPPPPRP	0.722
PPSPPPPLSLSP	0.685
LHPPHPPPSPPP	0.626
PPPPATRPSPCY	0.706
IGKWIKKKKQKG	0.631
HFGPRTTLCAPD	0.666
VFFRCVCCLSVF	0.307
SPSRPTPNTIGP	0.615
SMSRSPPPSPPL	0.669
QKINKRPTIRQI	0.603
GLCGVCVLKFPR	0.759
TGVPNPSVAVMC	0.498
RFCRVERAILLR	0.481
GSQPSQRRSSGA	0.679
GISGGTVSILGV	0.704
VVRLTNGLFSIL	0.662
AVGLGPFGGSRG	0.695
ARVIISGYWILY	0.519
PPRPPPPPRSTS	0.672
PFCVPPPRPFSL	0.743
FRPCLRCLVSPF	0.636
GGPAWGRGGMYW	0.678
GSWDEFGVYSRV	0.613
ITLSLGRQQIEL	0.654
LIQKANGRIRRG	0.763
TTRYKKQNRRKE	0.74
PLSPLHHCPLSP	0.666
VYACGVDFNVRG	0.678
SWVSVLSELLAC	0.336
YSQSRPYFRIPG	0.647
GGGGEVRAWGLR	0.71
KRESETPKKHRK	0.711
IAASCGPRYKDS	0.632
GDTVLLCDLASC	0.687
VAVWWVQCAGGV	0.661
PRPAPLPAPPPS	0.679
RTFTLCSPSPCA	0.645
LFIGLAAVHAHY	0.687
HRVNKKNCEEKT	0.631
MVIYGKEGWRIQ	0.661
GGCNLLGRGPDF	0.694
HVLCRAFLFLLP	0.642
GGLRPLFLCCLF	0.569
PRRRLVLDDRPT	0.728
GCVGGWCGGSGA	0.698
PPPPLPPQPPPP	0.654
LPHPRLPSPPGP	0.686
AVFWLRFSRISV	0.618
VASVWGVGFVAS	0.694
FKRPQFFSAFFP	0.612
YIILLSRKCAFC	0.503
PPVPPPPRLPRP	0.727
VGWGGGVEEVKG	0.712
PPSRPLPFLLPH	0.696
FGWFDIKDSTNS	0.718
VSTVCLDFSPFL	0.755
SLPRPPPPASTP	0.623
VILYCSNVAVCS	0.294
KEQNKVHTQNKK	0.755
FSAPLPPARSPS	0.798
AEHSIFQLFPKD	0.703

====

test system: Saccharomyces cerevisiae; test: protein stability index of tFT-peptide fusion (C-terminal peptide) (PSI (0-1 scale)); higher = more stable (slower turnover); settings: genetic background: wild type; temperature: 30 C

Sequence chain	protein stability index
KNEEDSTYFSNV [PMR1 C-terminal 12 aa]	0.698
LASALKELQDAA [YHR112C C-terminal 12 aa]	0.682
ELIEDPRKMLLW [KGD2 C-terminal 12 aa]	0.69
HYPSSDIRGDIL [YOR161C-C C-terminal 12 aa]	0.7
SATFTSDHIGHI [RIM21 C-terminal 12 aa]	0.685
FWEKRWKDGWDE [ERV1 C-terminal 12 aa]	0.681
IEQYLQTYGASA [URA5 C-terminal 12 aa]	0.695
TEFMNFWINVLP [RSC4 C-terminal 12 aa]	0.715
NFLNLLSPLPSV [TOM7 C-terminal 12 aa]	0.695
YDENSKPKGTKE [FUN30 C-terminal 12 aa]	0.704
MKKPRKSKKAAN [KRE33 C-terminal 12 aa]	0.714

====

system: Saccharomyces cerevisiae; experiment: protein stability index of tFT-peptide fusion (C-terminal peptide) (PSI (0-1 scale)); higher = more stable (slower turnover); conditions: genetic background: wild type; temperature: 30 C
Attribute measured: protein stability index

Sequence chain	Observed result
LSTCSFSFFLHT	0.66
LPPLAPAPPTTS	0.617
VCEGFRTWALGG	0.722
GWGGGEGVEGEP	0.678
EEGAGLLWSAVG	0.641
HPKPNLPPAAVH	0.685
AEGPAGNRGLGG	0.656
FLYFLLQFLCSG	0.516
GIPIQKLEYMCK	0.669
ALPLRSNILSVF	0.38
SLGGLVSGPGLV	0.687
TNATENKNRHPN	0.741
VHRRRVSVGGGG	0.69
PARPQSFPPPNV	0.669
VVASSRSAQRLP	0.701
QKKTKRGLTYTS	0.67
HRYSGSTFSAVL	0.728
FLWLCLLSLFFR	0.481
PFPSFLPLLLPS	0.702
AVLKDFDTKHLY	0.613
QKRKMIEKEKEK	0.768
ARRTSAGVWCTA	0.705
RTQRGRMVGEQG	0.732
APCRSLLADLAL	0.736
YGGRGFKGYYGG	0.776
GAVSVVFGWTDV	0.672
GRGSAVTGVYGV	0.664
AITHVILLVTPL	0.507
FWEIRSGSNHRH	0.713
PLRRPSWVVLSS	0.493
RRVPTDQYRLLE	0.696
SCCTITVPERPR	0.653
VPLGFPPPPLDP	0.727
PPSLLFPLPLAS	0.649
VSFEFSVLWTVF	0.46
VSVSERVGNMLP	0.679
LAPPVRECPFML	0.692
MIKINHRIKIKY	0.712
NVIVRVPFVLEE	0.692
RGVGGREGAAPV	0.691
SRHFPLGTVHVP	0.756
QEREAGVTALIR	0.707
MEAAARRMIKRK	0.6
PLPSSRSPSPPS	0.711
GWAIKGPFTLRS	0.663
GIKMTWTNGQHF	0.691
LGRSRYADVQFC	0.77
VSPPPRFPLLPS	0.669
SVAGFFLLLLLS	0.285
VFMTLHCITIYK	0.458
GKTRLIEDTQTT	0.67
LGLMSSCFSMWC	0.657
GRPYPPHFQHPS	0.773
VSSWNALCVEGM	0.649
IFRVTGFPIYIF	0.297
KAGLSFSRQRGW	0.606
PSSSFFFLSSYL	0.706
GGEGRGAFWGGE	0.684
TRYKSFWSLASI	0.703
PPCRRGRTHGVY	0.685
LSPHSSLTPPPH	0.616
GGGGGSRGVCLG	0.656
LVMQSVQDDPVF	0.692
LLSILSSLPLSR	0.576
SRGLVRGPMSGR	0.661
RSPTRHAPPRPV	0.639
LLFSTPWVWCLL	0.623
DLSVSDGCVAFG	0.64
GCWGAGESTLGG	0.724
RRGCYLFTPRPG	0.648
DLSFVLAPFVSP	0.668
SSDLSNVQTQRL	0.708
IKNENKKKKNKK	0.699
LGRCSTLLYCGP	0.669
LSLSPPPASPIP	0.692
HDAPTRQLTLPG	0.663

====

# protein stability index per record follows
test system: Saccharomyces cerevisiae; experiment: protein stability index of tFT-peptide fusion (C-terminal peptide) (PSI (0-1 scale)); higher = more stable (slower turnover); settings: genetic background: wild type; temperature: 30 C
Attribute measured: protein stability index

Sequence chain	System name	Attribute measured	Observed result
VRGRGRQDVDGG	Saccharomyces cerevisiae	protein stability index	0.699
ILWVSPFFFSLD	Saccharomyces cerevisiae	protein stability index	0.699
KKKKKQKKKKGT	Saccharomyces cerevisiae	protein stability index	0.713
PPPPYPPHPPSA	Saccharomyces cerevisiae	protein stability index	0.712
QAANPWQRPFGW	Saccharomyces cerevisiae	protein stability index	0.689
VRWSEVGMGVWR	Saccharomyces cerevisiae	protein stability index	0.708
PVSPRLLLRFTL	Saccharomyces cerevisiae	protein stability index	0.691
LIGICCDSGSHC	Saccharomyces cerevisiae	protein stability index	0.691
SLFPPPLLLSAS	Saccharomyces cerevisiae	protein stability index	0.574
SLIVLRSIAVLD	Saccharomyces cerevisiae	protein stability index	0.449
AVGLGARHRVAW	Saccharomyces cerevisiae	protein stability index	0.688
FPVTAPPRPFLF	Saccharomyces cerevisiae	protein stability index	0.639
QVVWAVPRICLV	Saccharomyces cerevisiae	protein stability index	0.445
LFPALFWPTSTL	Saccharomyces cerevisiae	protein stability index	0.743
LGGGSGCVEGGL	Saccharomyces cerevisiae	protein stability index	0.713
DQRRKKKPIKGN	Saccharomyces cerevisiae	protein stability index	0.736
PRSPPHLRWTRY	Saccharomyces cerevisiae	protein stability index	0.686
AAPPPAPPPPPR	Saccharomyces cerevisiae	protein stability index	0.694
FIPPRTYCLMIG	Saccharomyces cerevisiae	protein stability index	0.323
GGVCVGSFLFDR	Saccharomyces cerevisiae	protein stability index	0.702
CIFSMLLPPFSL	Saccharomyces cerevisiae	protein stability index	0.687
SSGRRFVVVVQG	Saccharomyces cerevisiae	protein stability index	0.572
VSPSPLDHPFHV	Saccharomyces cerevisiae	protein stability index	0.684
PFPPPRPPPAPP	Saccharomyces cerevisiae	protein stability index	0.613
VYVLTKSSMGRN	Saccharomyces cerevisiae	protein stability index	0.692
GGWGGGGGAWSG	Saccharomyces cerevisiae	protein stability index	0.71
HPTRPHLPPFAP	Saccharomyces cerevisiae	protein stability index	0.681
IKKKNQKHKKKN	Saccharomyces cerevisiae	protein stability index	0.711
LVLSVWFFNCTS	Saccharomyces cerevisiae	protein stability index	0.424
GRFVAPDSHPVG	Saccharomyces cerevisiae	protein stability index	0.682
INYSNQNKINRW	Saccharomyces cerevisiae	protein stability index	0.629
HVVLPPRYCISR	Saccharomyces cerevisiae	protein stability index	0.696
GASGGRIGEGEE	Saccharomyces cerevisiae	protein stability index	0.679
RLLLRNAASSSS	Saccharomyces cerevisiae	protein stability index	0.691
NEPQDQLQEQAT	Saccharomyces cerevisiae	protein stability index	0.665
KKIEAKGMRNDS	Saccharomyces cerevisiae	protein stability index	0.599
RVVGGWGEAWRE	Saccharomyces cerevisiae	protein stability index	0.744
GRTCCGGGVGFG	Saccharomyces cerevisiae	protein stability index	0.595
PPPRSPPAPPPP	Saccharomyces cerevisiae	protein stability index	0.774
CASACPPPPPAT	Saccharomyces cerevisiae	protein stability index	0.726
VLTFVWLVGQGF	Saccharomyces cerevisiae	protein stability index	0.581
KALGFHGGLHRF	Saccharomyces cerevisiae	protein stability index	0.573
AGGLCLGGVGLG	Saccharomyces cerevisiae	protein stability index	0.674
PFLLSPCSLSAS	Saccharomyces cerevisiae	protein stability index	0.665
KYGTPFPPEVEM	Saccharomyces cerevisiae	protein stability index	0.718
SCIAVRDPWGLV	Saccharomyces cerevisiae	protein stability index	0.683
PPQPRLTPSPPL	Saccharomyces cerevisiae	protein stability index	0.697
SPPPPHVPLSPS	Saccharomyces cerevisiae	protein stability index	0.712
PLPPHRLPYPRL	Saccharomyces cerevisiae	protein stability index	0.81
HIYHIRFANKRG	Saccharomyces cerevisiae	protein stability index	0.657
FQPPARATFLPV	Saccharomyces cerevisiae	protein stability index	0.668
RCLRYFVWRLGW	Saccharomyces cerevisiae	protein stability index	0.709
